Data credit: patent US20210054097A1

- measured.on: T1, FX activation peptide 12-mer NQTQPERGDNNL (human)
- T1 peptide: NQTQPERGDNNL-biotin
- measurement.description: peptide ELISA
Ends that are not written are not given here.
Please go through the items and note down their ELISA signal relative to background.
Just the number.

So what does the record say about ELISA signal relative to background for Nb 729C08 (VHH, monovalent Nanobody; also called Nb 729008; not shown: C-terminal FLAG3 and HIS6 tag) VHH: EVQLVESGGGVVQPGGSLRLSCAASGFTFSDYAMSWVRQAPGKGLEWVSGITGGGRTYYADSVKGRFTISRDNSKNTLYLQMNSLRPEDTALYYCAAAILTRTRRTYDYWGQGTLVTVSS ? 1.09

What does the data say about its ELISA signal relative to background? Entry: Nb 701D07 (VHH, monovalent Nanobody; not shown: C-terminal FLAG3 and HIS6 tag) VHH: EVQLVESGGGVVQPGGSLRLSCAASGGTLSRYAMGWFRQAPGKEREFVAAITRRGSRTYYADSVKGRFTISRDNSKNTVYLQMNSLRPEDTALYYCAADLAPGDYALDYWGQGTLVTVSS 0.87

So what's the measured ELISA signal relative to background for this one? Nb 701B09 (VHH, monovalent Nanobody; also called Nb 701609; not shown: C-terminal FLAG3 and HIS6 tag) VHH: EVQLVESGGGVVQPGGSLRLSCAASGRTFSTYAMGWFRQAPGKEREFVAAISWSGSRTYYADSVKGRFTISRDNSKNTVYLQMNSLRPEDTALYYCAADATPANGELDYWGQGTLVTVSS 0.79

# get_value(readout='ELISA signal relative to background', item= Nb 501A02 (VHH, monovalent control Nanobody; also called control Nanobody; not shown: C-terminal FLAG3 and HIS6 tag) VHH: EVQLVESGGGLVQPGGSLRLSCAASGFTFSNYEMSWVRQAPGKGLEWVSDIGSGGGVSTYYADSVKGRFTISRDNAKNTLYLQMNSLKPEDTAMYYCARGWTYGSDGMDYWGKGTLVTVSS ) 0.71
